Please provide measured growth for the entries that follow.
Test system: M14 melanoma
assay.text: NCI-60 one-dose screen, 48 h (100 = growth as untreated, 0 = no growth, -100 = all killed)
condition.info: 10 µM unless noted
Compounds without any hit were thinned out: in the full panel of roughly 83,000, 20% have a hit. Active and inactive are the calls of the source. Rule for the calls: active = growth percent below 10; inactive = the rest.

Form field growth for item Cc1ccc(C2CC(c3ccc(NC(=O)Nc4ccccc4)cc3)=NN2c2ccc(S(N)(=O)=O)cc2)cc1 (stereo not drawn) on M14 melanoma: -73.2% (active)

Field growth (system: M14 melanoma) for entry `O=C(Nc1nc2ccc([N+](=O)[O-])cc2s1)Nc1ccc(Cl)cc1Cl` = 77.9% (inactive)

Reported M14 melanoma growth for item `Clc1ccc(-c2nc3ccc(-c4nnc(SCc5ccccc5)o4)cc3[nH]2)cc1` was 67.9% (inactive)

---

Test system: BT-549 breast
assay.text: NCI-60 one-dose screen, 48 h (100 = growth as untreated, 0 = no growth, -100 = all killed)
condition.info: 10 µM unless noted
Procedure: Growth inhibition of the BT-549 human tumor cell line is measured as a screen for anti-cancer activity. Cells are grown in 96 well plates and exposed to the test compound for 48 hours. Compounds are tested at a single concentration, which is 10^-5 M for most compounds. The reported endpoint is percent growth (GI% or GIPRCNT), where numbers from 0 - 100% represent growth inhibition, and numbers from -100% - 0 represent cell death. For example, a value of 40 represents 60% growth inhibition. […]
About 83,000 compounds went through this panel and 20% of them were active in at least one assay; those are over-represented in the sample as a whole.
Can you tell me growth for the items I'm about to list?
Dear colleague, please return just the value in %, with no unit written.

Param item: `COc1cc(CNC(=O)C[C@H](C)CCC=C(C)C)ccc1OCc1cn(-c2ccc(Cl)cc2Cl)nn1` ; param system: BT-549 breast; output growth: 83.7

BT-549 breast growth of `Cn1cc(-c2cc(N)n3nc(-c4c[nH]c5ccccc45)cc3n2)c2ccccc21` is -92.5

Summary: `CC(=O)c1c2c(c3ccc4c5ccccc5ccc4n13)C(=O)c1ccccc1C2=O` , BT-549 breast, growth = 113

Tested on BT-549 breast, the item `COc1ccc(-c2cc(-c3ccccc3)c(C#N)c(=O)[nH]2)cc1S(N)(=O)=O` showed growth equal to 89.5

Here `N#CCc1nnc(NC(=O)c2ccc(-n3c(=O)[nH]c4ccccc4c3=O)cc2)s1` was tested on BT-549 breast, and its growth came to 109

Log: BT-549 breast, compound O=C(c1ccc(Cl)cc1)C1[C@H](c2ccccc2Cl)[C@@H](c2ccccc2)NC12C(=O)Nc1ccc(Cl)cc12 (stereo partly specified) , growth = -87.2

---

System: UACC-62 melanoma
assay.text: NCI-60 one-dose screen, 48 h
condition.info: 10 µM unless noted
Procedure: Growth inhibition of the UACC-62 human tumor cell line is measured as a screen for anti-cancer activity. Cells are grown in 96 well plates and exposed to the test compound for 48 hours. Compounds are tested at a single concentration, which is 10^-5 M for most compounds. The reported endpoint is percent growth (GI% or GIPRCNT), where numbers from 0 - 100% represent growth inhibition, and numbers from -100% - 0 represent cell death. For example, a value of 40 represents 60% growth inhibition. […]
Compounds without any hit were thinned out: in the full panel of roughly 83,000, 20% have a hit. Activity calls are given as the source filed them. Rule for the calls: active = growth percent below 10; inactive = the rest.
The categories you may choose from are 1.0 for active, 0.0 for inactive

q: Recorded call for `O=C1Nc2ccccc2/C1=C/C(=O)c1cc2ccccc2oc1=O` ?
a: 0.0

q: GET /call?item= `CS(=O)(=O)Nc1cncc(-c2ccc3ncnc(NCc4ccccc4)c3c2)c1` returns the recorded outcome of this test.
a: 0.0

q: # lookup: test call for `O=C(CSc1nc2ccccc2c(=O)[nH]1)NNC(=O)c1ccccc1Cl`
a: 0.0

q: Which outcome did this test record for the molecule `Nc1cc(-c2c[nH]c3ccc(F)cc23)nc2cc(-c3c[nH]c4ccccc34)nn12` ?
a: 1.0

q: Kindly provide the recorded test outcome for the following molecule: O=C(OCCOCCO)N(c1cccc(Br)c1)c1nc(SCCN2CCOCC2)nc2c1cnn2CC(Cl)c1ccc(Br)cc1 (configuration not stated)
a: 1.0

q: Hi, do you know how `COc1ccc(-n2c(NC(=O)N3CCN(C)CC3)c(C#N)c3ccccc32)cc1` came out in this test?
a: 0.0

q: Check the results log: what was the call for O=C(c1ccc(Cl)cc1)C1[C@H](c2ccccc2Cl)[C@@H](c2ccccc2)NC12C(=O)Nc1ccc(Cl)cc12 (some centres not stated) ?
a: 1.0

---

Test system: MDA-MB-231 breast
assay.text: NCI-60 one-dose screen, 48 h (100 = growth as untreated, 0 = no growth, -100 = all killed)
condition.info: 10 µM unless noted
The panel holds about 83,000 compounds, 20% with a hit somewhere; the sample as a whole holds those more often.
The following ranges of growth define the classes used here: low interval: < 30%; middle interval: ≥ 30% and < 60%; high interval: ≥ 60%

q: Could you tell me which band `O=C1Nc2ccccc2/C1=C\c1ccc(OCC(=O)c2ccc(Br)cc2)cc1` belongs to?
a: high interval

q: The entry to classify is `O=C(Nc1ccc(Br)cc1)Nc1ccc(-c2ccc3c(c2)NC(=O)/C3=C\c2ccc[nH]2)cc1` ; which class holds it?
a: high interval

q: Band for the recorded growth of `CN(CCSSCCN1CCOCC1)C(=O)Oc1cc2c(c3ccccc13)[C@H](CCl)CN2C(=O)c1cc2cc(OCCCN3CCC3)ccc2[nH]1` ?
a: low interval

q: In plain terms, what class is CCOc1ccccc1[C@H]1C(C(=O)c2ccc(Cl)cc2)C2(N[C@@H]1c1ccccc1)C(=O)Nc1ccc(Br)cc12 (stereo partly drawn) ?
a: low interval

q: Categorize the following entry: `O=C1/C(=C/c2cccc3c2OCO3)Cc2c(F)cc(Br)cc21`
a: high interval

q: Class (by measured growth) for `O=C(NC(=S)N1CCN(c2ncnc3c2cnn3-c2ccccc2)CC1)c1ccc(Br)cc1`
a: high interval

q: The entry to classify is `Nc1nnc(-c2cncc(Br)c2)c(-c2c[nH]c3ccc(Br)cc23)n1` ; which class holds it?
a: middle interval

q: Category of `O=C1Nc2cc(-c3ccc(NS(=O)(=O)c4ccc(-c5ccccc5)cc4)cc3)ccc2/C1=C/c1ccc[nH]1` :
a: high interval

q: In plain terms, what class is O=C(c1ccc(Cl)cc1)C1[C@H](c2ccccc2Cl)[C@@H](c2ccccc2)NC12C(=O)Nc1ccc(Cl)cc12 (stereo partly drawn) ?
a: low interval

q: Categorize the following entry: `CN(C)c1nc(NCCNS(=O)(=O)c2ccc(C(=O)/C=C/c3ccccc3)cc2)nc(N2CCOCC2)n1`
a: low interval

q: Please report the category associated with `O=C(Cc1c(-c2cccc([N+](=O)[O-])c2)n(-c2ncnc3c2c(-c2ccccc2)c(-c2ccccc2)n3Cc2ccccc2)[nH]c1=O)c1ccc(Cl)c(Cl)c1` , nothing else.
a: middle interval

---

System: DU-145 prostate
assay.text: NCI-60 one-dose screen, 48 h
condition.info: 10 µM unless noted
The panel holds about 83,000 compounds, 20% with a hit somewhere; the sample as a whole holds those more often. The source made the active and inactive calls. Rule for the calls: active = growth percent below 10; inactive = the rest.
Mark one answer only. Choices: 1 (yes) for active, 0 (no) for inactive

q: // return assay outcome for `O=C(Cn1c(-c2ccccc2)nc2ccccc21)N=Nc1c(O)[nH]c2ccc(Br)cc12`
a: 1 (yes)

q: Called result for `COc1ccc(-c2nc3ccccc3n2CC(=O)N=Nc2c(O)[nH]c3ccc(OC)cc23)cc1`
a: 1 (yes)

q: How did this test come out for `COc1ccc2nc(NC(=O)c3ccc(N(C)C)cc3)sc2c1` ?
a: 0 (no)

q: How was `COc1ccc(/C=C/C(=O)c2ccc(S(=O)(=O)NCCNc3nc(N(C)C)nc(N4CCOCC4)n3)cc2)cc1` classified in this test?
a: 0 (no)

q: Which outcome was assigned to `CC(=O)c1ccc2c(N)c(C(=O)Nc3ccc(C(F)(F)F)cc3)sc2n1` in this test?
a: 0 (no)

---

So I've got a bunch of compounds here, and I need their growth values.
Tested on: OVCAR-3 ovarian
assay.text: NCI-60 one-dose screen, 48 h (100 = growth as untreated, 0 = no growth, -100 = all killed)
condition.info: 10 µM unless noted
About 83,000 compounds went through this panel and 20% of them were active in at least one assay; those are over-represented in the sample as a whole.
The response must be a number in % with no trailing unit.

The compound listed as `O=C(CSc1nnc(-c2ccc(-c3nc4ccc(Cl)cc4[nH]3)cc2)o1)Nc1ccccc1` has a reported growth of 43.4

Per the record, COC(=O)c1c(C(=O)OC)c2ccc3c4ccccc4ccc3n2c1C(=O)C(C)Br (stereo not given) has growth of 16.7

get_value(item= COc1c2c(cc3c1C(CCc1ccccc1)N(C)CC3)OCO2 (stereo not given) , readout=growth) returns 3.16

For record `Cn1cc(-c2cc(N)n3nc(-c4c[nH]c5ccc(Cl)cc45)cc3n2)c2cc(Br)cnc21` the listed growth is -81

The reported growth of the compound `CN1CCN(c2ccc3c4c(cccc24)C(=O)N(c2cccc(-c4nn(-c5ccccc5)cc4-c4nc5ccccc5s4)c2)C3=O)CC1` was 118
